target: cPLA2 (Homo sapiens, UniProt P47712)
Sequence (P47712 whole entry): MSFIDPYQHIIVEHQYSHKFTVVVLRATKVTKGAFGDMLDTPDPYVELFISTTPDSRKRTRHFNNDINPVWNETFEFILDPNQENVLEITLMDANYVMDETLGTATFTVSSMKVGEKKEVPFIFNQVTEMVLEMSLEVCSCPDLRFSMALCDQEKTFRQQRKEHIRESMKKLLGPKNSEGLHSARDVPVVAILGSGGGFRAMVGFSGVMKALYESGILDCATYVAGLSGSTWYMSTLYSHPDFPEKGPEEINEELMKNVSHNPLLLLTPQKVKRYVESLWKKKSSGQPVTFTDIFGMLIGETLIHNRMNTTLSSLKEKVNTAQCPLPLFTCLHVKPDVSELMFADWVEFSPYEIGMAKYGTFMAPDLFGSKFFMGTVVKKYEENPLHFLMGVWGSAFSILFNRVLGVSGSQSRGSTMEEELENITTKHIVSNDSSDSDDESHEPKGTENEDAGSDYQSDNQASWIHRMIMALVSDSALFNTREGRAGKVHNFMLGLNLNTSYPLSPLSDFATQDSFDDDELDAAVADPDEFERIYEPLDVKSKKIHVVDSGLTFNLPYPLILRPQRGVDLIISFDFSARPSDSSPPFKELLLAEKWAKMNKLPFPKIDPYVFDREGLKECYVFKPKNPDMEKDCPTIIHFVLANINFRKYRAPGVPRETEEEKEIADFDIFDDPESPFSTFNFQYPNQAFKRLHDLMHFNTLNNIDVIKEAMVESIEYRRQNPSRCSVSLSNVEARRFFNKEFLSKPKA
IC50 less than 0.08 µM is MET; IC50 greater than or equal to 0.08 µM is NOT MET.

Some solved cases for reference:
compound	qualitative label
O=C1NC(=O)/C(=C/c2ccc(C(=O)NC[C@@H]3C[C@@H](OCc4ccccc4-c4ccccc4)CN3C(=O)/C=C\C(=O)c3ccccc3)cc2)S1 [Compound A-8]	NOT MET
Cc1c(CO[C@@H]2C[C@@H](CNC(=O)c3ccc(/C=C4\SC(=O)NC4=O)cc3)N(C(=O)c3ccccc3C(=O)c3ccc(F)cc3)C2)cccc1-c1ccccc1 [Compound A-31]	NOT MET
O=C1NC(=O)/C(=C/c2ccc(C(=O)NC[C@@H]3C[C@@H](Oc4cccc(-c5ccccc5)c4)CN3C(=O)c3ccccc3C(=O)c3ccc(F)cc3)cc2)S1 [Compound A-69]	MET
O=C1NC(=O)/C(=C/c2ccc(NC(=O)[C@@H]3C[C@@H](SCc4ccccc4-c4ccccc4)CN3C(=O)c3ccccc3C(=O)c3ccc(F)cc3)s2)S1 [Compound J-3]	NOT MET
O=C1NC(=O)/C(=C/c2ccc(C(=O)NC[C@@H]3C[C@@H](Oc4ccccc4-c4cccc([N+](=O)[O-])c4)CN3C(=O)c3ccccc3C(=O)c3ccc(F)cc3)cc2)S1 [Compound A-111]	MET

Task: Please determine if O=C1NC(=O)/C(=C/c2ccc(COC[C@@H]3C[C@@H](OCc4ccccc4-c4ccccc4)CN3C(=O)c3ccccc3C(=O)c3ccc(F)cc3)cc2)S1 [Compound C-1] is below 0.08 µM in terms of IC50.
Output: NOT MET

Task: Problem: For the compound CC(C)CN(C(c1ccccc1)c1ccccc1)[C@@H]1C[C@@H](CNC(=O)c2ccc(/C=C3\SC(=O)NC3=O)cc2)N(C(=O)c2ccccc2C(=O)c2ccc(F)cc2F)C1 [Compound M-17] , is IC50 under 0.08 µM?
Output: MET

Task: State whether 0.08 µM exceeds IC50 recorded for CC(C)Oc1ccccc1-c1ccccc1O[C@@H]1C[C@@H](CNC(=O)c2ccc(/C=C3\SC(=O)NC3=O)cc2)N(C(=O)c2ccccc2C(=O)c2ccc(F)cc2)C1 [Compound A-121] .
Output: MET

Task: A record lists O=C1NC(=O)/C(=C/c2ccc(C(=O)NC[C@@H]3C[C@@H](OCc4ccccc4-c4ccccc4)CN3C(=O)c3ccccc3C(=O)c3ccc(F)cc3F)cc2)S1 [Compound A-25] . Is its IC50 below 0.08 µM?
Output: MET

Task: Lab log: compare recorded IC50 with 0.08 µM; is it strictly lower for CN(C(=O)C[C@@H]1C[C@@H](OCc2ccccc2-c2ccccc2)CN1C(=O)c1ccccc1C(=O)c1ccc(F)cc1)c1ccc(/C=C2\SC(=O)NC2=O)cc1 [Compound G-13] ?
Output: NOT MET
